// data source = patent US20250011448A1

# Measurement target: T1, cynomolgus monkey TNFR2 extracellular domain with C-terminal 10×His tag (cynomolgus monkey, UniProt P20333 23-257 (human entry))
# T1 construct: also called cynoTNFR2-His; His-tag-cynoTNFR2
# T1 chain: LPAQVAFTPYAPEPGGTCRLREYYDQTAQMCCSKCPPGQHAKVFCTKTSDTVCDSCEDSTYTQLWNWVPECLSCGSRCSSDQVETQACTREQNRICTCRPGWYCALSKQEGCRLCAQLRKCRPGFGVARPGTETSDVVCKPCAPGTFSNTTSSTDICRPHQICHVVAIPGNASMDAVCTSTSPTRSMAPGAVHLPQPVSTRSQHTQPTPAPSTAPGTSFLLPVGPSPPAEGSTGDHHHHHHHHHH
# Experiment summary: BLI (Octet RED96), antibody captured on AHC biosensor, His-tagged TNFR2 in solution, 1:1 model
# Experimental: The following kinetic assay was performed using anti-human IgG Fc capture (AHC) biosensors (ForteBio) in kinetics buffer (PBS, 0.1% Tween-20 and 1% bovine serum albumin): (a) antibody (2 μg/mL) for 300 sec, (b) baseline for 120 sec, (c) association with His-tag-huTNFR2 (2.5, 0.5 and 0 μg/mL) and His-tag-cynoTNFR2 (2.5, 0.5 and 0 μg/mL) for 420 sec and (d) dissociation for 1200 sec. […]
Measured metric: Kd (nM)
Give bare numbers, in nM.

Worked examples, 3 binders total:
INSERT INTO measurements (binder, measured_metric, result_value) VALUES
  ('85G8.4 chimeric anti-TNFR2 antibody (antibody, V domains shown, Chimeric: mouse variable domains with human constant regions, made as recombinant IgG1) VH: EVQLQQSGPELVKPGASVKISCKTSGYTFTDFNMDWVKQSHGKSLEWIGYINPNNGDAAYNQKFKSKATLTVDKSSNTAYMELHSLTSDDSAVYYCARWGWAFAYWGQGTLVTVSA VL: DIVMTQSHKIMSTSVGDRVSITCKASQDVKTAVAWYQQKPGQSPKLLIYATSYRYTGVPDRFTGSGSGTDFTFTISTVQAEDLAVYYCQQHYSIPYTFGGGTKLEIK', 'Kd', 1.3),
  ('51B5 chimeric anti-TNFR2 antibody (antibody, V domains shown, Chimeric: mouse variable domains with human constant regions, made as recombinant IgG1) VH: QVQLQQSGAELARPGTSVKLSCKASGYTFTDDYIDWVKQRTGQGLEWIGEIYPGSGNTYYNEKFKGKATLTADKSSSTAYMQLSSLTSEDSAVYFCARSQVYGKIAMDHWGQGTSVTVSS VL: DIVLTQSPASLAVSLGQRATISCRASESVDNSGNSFMHWYQQIPGQPPKLLIYRASNLESGIPARFSGSGARTDFTLTIDPVGAVDVATYYCQQSKEDPYTFGGGTKLEIE', 'Kd', 0.672),
  ('15H10 chimeric anti-TNFR2 antibody (antibody, V domains shown, Chimeric: mouse variable domains with human constant regions, made as recombinant IgG1) VH: DVQLQESGPGLVTPSQSLSLTCSVTGYSITSGYYWNWIRQFPGNKLEWMGYITYDGNNNYNPSLKSRFSITRDTSKNQFFLKLNSVTSEDTATYYCARGDYGDSAMDYWGQGTSVTVSS VL: EIVLTQSPAITAASLGQKVTITCSASSGVNYMHWYQQKSGTSPKPWIYEISKLASGVPARFSGSGSGTSYSLTISSMEAEDAAIYYCQQWNYPLITFGAGTKVELK', 'Kd', 1.42);

Next binder, Kd to be filled in.
Item: 29G3 chimeric anti-TNFR2 antibody (antibody, V domains shown, Chimeric: mouse variable domains with human constant regions, made as recombinant IgG1) VH: EVMLVESGGASVKPGGSLKLSCAASGFTFSNFAMSWVRQTPEKRLEWVATIRSGDNYSYYSDNVKGRFTISRDNARNTLYLQMSSLRSKDTSIYYCARNWDKVFDYWGQGTTLTVSS VL: DIVLTQSPASLAVSLGQRATISCRASESVDSYGYSFMHWYQQKPGQPPKLLIYRASNLKSGIPARFSGSGSRTDFTLTINPVEADDVATYYCQQSNEDHTFGGGTKLEIK | Kd: 1.59
